target: GST-FAK (N-terminal GST fusion with truncated human FAK (376-1052 (end) amino acids)) (Homo sapiens, UniProt Q05397); construct: truncated human FAK (376-1052 (end) amino acids); test: Biochemical enzyme assay for FAK activity (Caliper LC3000 mobility shift); settings: Table 1; 100 uM ATP; read-out: FAK IC50
Sequence (Q05397 376-1052): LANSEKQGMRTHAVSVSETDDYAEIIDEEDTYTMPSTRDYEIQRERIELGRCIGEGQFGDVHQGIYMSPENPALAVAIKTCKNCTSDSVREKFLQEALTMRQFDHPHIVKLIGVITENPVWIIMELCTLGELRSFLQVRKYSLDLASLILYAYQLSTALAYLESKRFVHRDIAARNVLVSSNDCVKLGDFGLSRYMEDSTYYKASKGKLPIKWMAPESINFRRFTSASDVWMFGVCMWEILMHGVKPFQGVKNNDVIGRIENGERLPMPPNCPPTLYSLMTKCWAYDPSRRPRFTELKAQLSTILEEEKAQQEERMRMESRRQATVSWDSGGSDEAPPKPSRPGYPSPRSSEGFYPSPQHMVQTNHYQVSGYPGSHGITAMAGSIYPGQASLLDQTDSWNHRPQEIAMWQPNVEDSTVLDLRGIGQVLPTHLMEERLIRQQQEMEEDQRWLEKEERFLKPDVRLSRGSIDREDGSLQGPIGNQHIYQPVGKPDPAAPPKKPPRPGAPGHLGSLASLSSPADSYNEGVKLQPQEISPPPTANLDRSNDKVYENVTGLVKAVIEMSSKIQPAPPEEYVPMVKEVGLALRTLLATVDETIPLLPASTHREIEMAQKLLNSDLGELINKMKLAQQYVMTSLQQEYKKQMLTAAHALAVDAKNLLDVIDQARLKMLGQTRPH
Test Readout: IC50

{"Molecule": "Fc1cc(Cl)ccc1CNc1ccnc(-c2cncc(C(F)(F)F)c2)n1 [Compound 35]", "IC50": "< 0.1 µM"}

# molecule Fc1ccccc1CNc1ccnc(-c2cncc(Cl)c2)n1 [Compound 38] ; its IC50 = < 0.1 µM

# molecule FC(F)(F)c1cncc(-c2nccc(NCc3ccc4c(c3)OCCO4)n2)c1 [Compound 30] ; its IC50 = > 10 µM

====

target: GST-FAK (N-terminal GST fusion with truncated human FAK (376-1052 (end) amino acids)) (Homo sapiens, UniProt Q05397); construct: truncated human FAK (376-1052 (end) amino acids); assay: Biochemical enzyme assay for FAK activity (Caliper LC3000 mobility shift); details: Table 5; 100 uM ATP; read-out: FAK IC50
pIC50: −log10 of the molar value.
Test Readout: pIC50

{"Structure String": "COc1cncc(-c2nccc(NCCc3ccccc3)n2)c1", "Test Value": "< 5.00"}
{"Structure String": "COc1cncc(-c2nccc(NCCc3ccccc3Cl)n2)c1", "Test Value": "5.00 to 6.00"}
{"Structure String": "Cn1cc(-c2cc(NCc3ccc(F)cc3F)nc(-c3cncc(C(F)(F)F)c3)n2)cn1", "Test Value": "6.00 to 7.00"}
{"Structure String": "Fc1ccc(CNc2ccnc(-c3cccnc3F)n2)c(F)c1", "Test Value": "5.00 to 6.00"}
{"Structure String": "COc1cncc(-c2nccc(NCc3cc(F)c(F)cc3F)n2)c1", "Test Value": "6.00 to 7.00"}

# compound Fc1cccnc1CNc1ccnc(-c2cncc(C(F)(F)F)c2)n1 ; its pIC50 = 6.00 to 7.00

# compound Fc1ccc(CNc2ccnc(-c3ccc(F)nc3)n2)c(F)c1 ; its pIC50 = < 5.00

# compound FC(F)(F)c1cncc(-c2nccc(Nc3cn[nH]c3)n2)c1 ; its pIC50 = 5.00 to 6.00

# compound FC(F)(F)c1cccc(CCNc2ccnc(-c3cncc(C(F)(F)F)c3)n2)c1 ; its pIC50 = 5.00 to 6.00

====

target: GST-FAK (N-terminal GST fusion with truncated human FAK (376-1052 (end) amino acids)) (Homo sapiens, UniProt Q05397); construct: truncated human FAK (376-1052 (end) amino acids); assay: Biochemical enzyme assay for FAK activity (Caliper LC3000 mobility shift); conditions: Table 3; 100 uM ATP; read-out: FAK IC50
Test Readout: IC50

Would you please look over these solved cases?
{"Compound": "Nc1ncccc1-c1nccc(NCc2cccc(F)c2F)n1", "IC50": "1000 to 10000 nM"}
{"Compound": "CC(Nc1ccnc(-c2cncc(Cl)c2)n1)c1ccccc1C(F)(F)F (centres unmarked)", "IC50": "< 100 nM"}
{"Compound": "Nc1ncccc1-c1nccc(NC2CCOc3ccccc32)n1 (centres unmarked)", "IC50": "> 10000 nM"}
{"Compound": "Fc1ccc(CNc2ccnc(-c3cncc(C(F)(F)F)c3)n2)c(F)c1", "IC50": "< 100 nM"}
{"Compound": "Nc1ncccc1-c1nccc(NCc2cccc3c2OCO3)n1", "IC50": "100 to 1000 nM"}

# compound COc1ccccc1CNc1ccnc(-c2cccnc2N)n1 ; its IC50 = 1000 to 10000 nM

# compound Nc1ncccc1-c1nccc(NCc2c(F)cccc2C(F)(F)F)n1 ; its IC50 = 1000 to 10000 nM

# compound FC(F)(F)c1cncc(-c2nccc(NCc3ccc(Cl)cc3C(F)(F)F)n2)c1 ; its IC50 = < 100 nM

# compound FC(F)(F)c1ccccc1CNc1ccnc(-c2cncc(Cl)c2)n1 ; its IC50 = < 100 nM

====

Target: GST-FAK (N-terminal GST fusion with truncated human FAK (376-1052 (end) amino acids)) (Homo sapiens, UniProt Q05397)
Construct: truncated human FAK (376-1052 (end) amino acids)
Assay: Biochemical enzyme assay for FAK activity (Caliper LC3000 mobility shift)
Conditions: Table 2; 100 uM ATP; read-out: FAK IC50
Experimental: 1. Biochemical Enzyme Assays for FAK Activity The FAK assays described here are performed on two Caliper Life Sciences systems, the LC3000 and the EZ Reader II. […] The plate is read on a Caliper LC 3000 in an Off-Chip mobility shift assay format, using the following parameters for a 12-sipper chip: screening pressure—1.9 psi, upstream voltage—3000, downstream voltage—700. […]
Each record here notes measured IC50.

Would you please look over these solved cases?
{"Compound": "CN1CCN(C(=O)CCNC(=O)c2cc(NCc3ccc(F)cc3F)nc(-c3cncc(C(F)(F)F)c3)n2)CC1 [Compound 44]", "IC50": "< 100 nM"}
{"Compound": "CCN(CC)C(=O)CCNC(=O)c1cc(NCc2ccc(F)cc2F)nc(-c2cncc(C(F)(F)F)c2)n1 [Compound 42]", "IC50": "< 100 nM"}
{"Compound": "CN1CCN(C(=O)CCNc2cc(NCc3ccc(F)cc3F)nc(-c3cncc(C(F)(F)F)c3)n2)CC1 [Compound 64]", "IC50": "100 to 1000 nM"}
{"Compound": "CC(Nc1ccnc(-c2cncc(C(F)(F)F)c2)n1)c1ccc(F)cc1 (centres unmarked) [Compound 68]", "IC50": "100 to 1000 nM"}
{"Compound": "CCc1noc(CCNC(=O)c2cc(NCc3ccc(F)cc3F)nc(-c3cncc(C(F)(F)F)c3)n2)n1 [Compound 74]", "IC50": "100 to 1000 nM"}
{"Compound": "Fc1ccc(CNc2cc(NCCCN3CCOCC3)nc(-c3cncc(C(F)(F)F)c3)n2)c(F)c1 [Compound 58]", "IC50": "< 100 nM"}

Moving on to another compound below.
# compound Fc1ccc(CNc2cc(NCCCn3ccnc3)nc(-c3cncc(C(F)(F)F)c3)n2)c(F)c1 [Compound 56] ; its IC50 = 100 to 1000 nM

====

target: GST-FAK (N-terminal GST fusion with truncated human FAK (376-1052 (end) amino acids)) (Homo sapiens); construct: truncated human FAK (376-1052 (end) amino acids); experiment: Biochemical enzyme assay for FAK activity (Caliper LC3000 mobility shift); conditions: Table 5; 100 uM ATP; read-out: FAK IC50
Test Readout: IC50

Would you please look over these solved cases?
{"Compound": "COc1cncc(-c2nccc(NCCc3ccc(F)cc3)n2)c1", "Test Readout": "IC50", "Test Value": "1000 to 10000 nM"}
{"Compound": "COC(=O)c1cc(NCc2ccc(F)cc2F)nc(-c2cncc(C(F)(F)F)c2)n1", "Test Readout": "IC50", "Test Value": "100 to 1000 nM"}

# compound COc1cncc(-c2nccc(NCCN3CCCC3=O)n2)c1 ; its IC50 = > 10000 nM

# compound Cc1cc(F)ncc1-c1nccc(NCc2ccc(F)cc2F)n1 ; its IC50 = > 10000 nM

# compound COc1cncc(-c2nccc(NCc3cc(F)ccc3F)n2)c1 ; its IC50 = 100 to 1000 nM

# compound COc1cncc(-c2nccc(NCc3cccc(C#N)c3)n2)c1 ; its IC50 = 1000 to 10000 nM

# compound NC(=O)CNC(=O)c1cc(NCc2ncccc2F)nc(-c2cncc(C(F)(F)F)c2)n1 ; its IC50 = 100 to 1000 nM

# compound COc1cncc(-c2nccc(NCc3ccncc3)n2)c1 ; its IC50 = > 10000 nM

# compound COc1cncc(-c2nccc(NCc3cc[nH]n3)n2)c1 ; its IC50 = 1000 to 10000 nM

# compound CN1CCCC1CCNc1ccnc(-c2cncc(C(F)(F)F)c2)n1 (stereo not shown) ; its IC50 = > 10000 nM

====

Each record here notes measured IC50.
target: GST-FAK (N-terminal GST fusion with truncated human FAK (376-1052 (end) amino acids)) (Homo sapiens, UniProt Q05397); construct: truncated human FAK (376-1052 (end) amino acids); test: Biochemical enzyme assay for FAK activity (Caliper LC3000 mobility shift); details: Table 1; 100 uM ATP; read-out: FAK IC50

{"Structure String": "COc1cncc(-c2nccc(NCc3cccc4c3OC(C)(C)C4)n2)c1", "IC50": "> 10 µM"}
{"Structure String": "Clc1cncc(-c2nccc(NCc3cccc(Oc4cnccn4)c3)n2)c1", "IC50": "> 10 µM"}
{"Structure String": "O=C(c1cncc(-c2nccc(NCc3ccc(Cl)cc3F)n2)c1)N1CCOCC1", "IC50": "> 10 µM"}
{"Structure String": "COc1cncc(-c2nccc(NCc3ccc(Cl)cc3F)n2)c1", "IC50": "0.1 to 1 µM"}

# molecule COc1cncc(-c2nccc(NCc3cccc(Oc4cnccn4)c3)n2)c1 ; its IC50 = > 10 µM

# molecule Fc1ccc(Oc2ccc(CNc3ccnc(-c4cncc(F)c4)n3)cc2)cc1 ; its IC50 = > 10 µM

# molecule COc1cncc(-c2nccc(NCc3ccc(OC)c(F)c3F)n2)c1 ; its IC50 = 1 to 10 µM
